- Target or test system: T1, biotinylated recombinant human IL-12Rβ2 (human, UniProt Q99665 24-622, random biotinylated)
- T1 construct: Recombinant protein produced in-house; also called hIL-12RB2; human IL-12RB2
- T1 sequence: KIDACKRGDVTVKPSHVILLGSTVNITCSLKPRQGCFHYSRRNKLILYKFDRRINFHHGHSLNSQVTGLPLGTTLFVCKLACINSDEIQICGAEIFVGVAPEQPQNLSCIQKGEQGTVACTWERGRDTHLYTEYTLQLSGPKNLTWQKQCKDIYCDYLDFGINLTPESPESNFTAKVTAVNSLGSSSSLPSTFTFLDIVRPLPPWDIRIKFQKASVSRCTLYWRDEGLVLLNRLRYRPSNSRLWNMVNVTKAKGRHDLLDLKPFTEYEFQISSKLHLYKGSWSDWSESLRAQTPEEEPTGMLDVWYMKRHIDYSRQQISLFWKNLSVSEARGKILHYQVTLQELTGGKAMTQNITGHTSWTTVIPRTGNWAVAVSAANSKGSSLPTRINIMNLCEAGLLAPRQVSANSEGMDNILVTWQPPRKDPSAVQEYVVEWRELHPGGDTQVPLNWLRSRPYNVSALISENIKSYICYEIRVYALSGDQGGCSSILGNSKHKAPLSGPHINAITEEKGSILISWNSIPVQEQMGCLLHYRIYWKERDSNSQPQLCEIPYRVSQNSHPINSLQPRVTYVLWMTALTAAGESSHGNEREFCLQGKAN
- Assay details: ELISA, P.E., biotinylated antigen
Value type: ELISA hIL-12RB2/control
# answer = number (no unit)

Would you please look over these solved cases?
anti-IL-12Rβ2 VHH clone 3CRHS184 (clone ID 20441) (VHH, not shown: small tags and cut ends, periplasmic extract) VHH: QVQLQESGGGLVQAGGSLVLSCAASGSAALIFLMSWYRQAPGKQRELVAEVSRYGSTTYADSVEGRFTISRDNAKNIVDLQMNSLKPEDTAVYYCKADQYYGDSLRSSWGRGTQLTVSS
4.17
anti-IL-12Rβ2 VHH clone 2CRH53 (clone ID 20366) (VHH, not shown: small tags and cut ends, periplasmic extract) VHH: QVQLQESGGGLVQAGGSLVLSCAASGSAALIFLMSWYRQAPGKQRELVAEVSRYGSTTYADSVEGRFTISRDNAKDIVDLQMNSLKPEDTAVYYCKADQYYGDSLRSSWGRGTQVTVSS
5.51
anti-IL-12Rβ2 VHH clone 2CAH27 (clone ID 20354) (VHH, not shown: small tags and cut ends, periplasmic extract) VHH: QVQLQESGGGSVQSGGSLRLSCVASGRTFSSYAMGWFRQGPGKEREFVAAISWSGVSIYYADSVKGRFTISRDNAKNTVYLQMNSLEPEDTAVYYCAGTEGAYTVAGGSTFGYDMDYWGKGTQVTVSS
3.84
anti-IL-12Rβ2 VHH clone 3CRHS106 (clone ID 20429) (VHH, not shown: small tags and cut ends, periplasmic extract) VHH: QVQLQESGGGLVQPGGSLRLSCKASGFTFSTYAMSWVRQAPGKGLEWVSAVNSGGLSTDYADSVEGRFTISRDDAKNMLFLQMNSLKPEDTARYYCAKYEDCSDYMCHRDRAGYWGQGTQVTVSS
10.2
anti-IL-12Rβ2 VHH clone 3CRHS142 (clone ID 20434) (VHH, not shown: small tags and cut ends, periplasmic extract) VHH: QVQLQESGGGLVQAGGSLRLSCVSSQTLVGIEAMGWYRQAPGKQRELVALITLNGGTFYADSVKGRFTISRDVAEHMLYLEMNSLNPEDTAVYFCVAGVESDNEEPTYWGQGTQVTVSS
23.7

For the binder shown here, anti-IL-12Rβ2 VHH clone 3CAHS39 (clone ID 20393) (VHH, not shown: small tags and cut ends, periplasmic extract) VHH: QVQLQESGGGLVQAGGSLRLSCAASGRTINAYIMGWFRQAPGKEREFVAAVSGSGGSTYYADSVKGRFTISRDNAKNTVNLQMDNLRSEDTDVYYCAATYESVYLQNPGQYDYWGQGTQVTVSS , give the reported ELISA hIL-12RB2/control. 4.73

Please give the result for anti-IL-12Rβ2 VHH clone 2CRH10 (clone ID 20362) (VHH, not shown: small tags and cut ends, periplasmic extract) VHH: QVQLQESGGGLVQAGGSLVLSCAASGSAALIFLMSWYRQAPGKQRELVAEVSRGGSTTYADSVEGRFHISRDNAKNIVDLQMNSLKPEDTAVYYCKADQNYGDSLRSSWGRGTQVTVSS too. 6.22

Please give the result for anti-IL-12Rβ2 VHH clone 2CRH73 (clone ID 20369) (VHH, not shown: small tags and cut ends, periplasmic extract) VHH: QVQLQESGGGLVQAGGSLRLTCTASGSAALIFLMSWYRQAPGKQRELVAEVSRRGSTTYADSVEGRFTISRDNAKNIVDLQMNSLKPEDTAVYYCKADQYYGDSLRSSWGRGTQVTVSS too. 4.37

Please give the result for anti-IL-12Rβ2 VHH clone 3CRHS55 (clone ID 20423) (VHH, not shown: small tags and cut ends, periplasmic extract) VHH: QVQLQESGGGLVQAGGSLNLSCTASGSIISIYNMDWYRQAPGNQREWVASITSNGDSYYDGSAKGRFTISRDNAKMTVYLQMNSLKPEDTAVYYCKVPTENGNYWGQGTQVTVSS too. 3.76

Please give the result for anti-IL-12Rβ2 VHH clone 3CRHS100 (clone ID 20428) (VHH, not shown: small tags and cut ends, periplasmic extract) VHH: QVQLQESGGGLVQPGGSLRLSCTASGSIFSIYNMDWYRQAPGNQREWVASITPSGDPYYDDSAKGRFTISRDNAKMTVYLQMNSLKPEDTAVYYCKVPTEKGNYWGQGTQVTVSS too. 5.88
